Data provenance is ChEMBL document CHEMBL3734721.

What pEC50 was measured for each of the following?
# testedTarget: Kappa-type opioid receptor (Homo sapiens)
# Sequence (P41145 whole entry): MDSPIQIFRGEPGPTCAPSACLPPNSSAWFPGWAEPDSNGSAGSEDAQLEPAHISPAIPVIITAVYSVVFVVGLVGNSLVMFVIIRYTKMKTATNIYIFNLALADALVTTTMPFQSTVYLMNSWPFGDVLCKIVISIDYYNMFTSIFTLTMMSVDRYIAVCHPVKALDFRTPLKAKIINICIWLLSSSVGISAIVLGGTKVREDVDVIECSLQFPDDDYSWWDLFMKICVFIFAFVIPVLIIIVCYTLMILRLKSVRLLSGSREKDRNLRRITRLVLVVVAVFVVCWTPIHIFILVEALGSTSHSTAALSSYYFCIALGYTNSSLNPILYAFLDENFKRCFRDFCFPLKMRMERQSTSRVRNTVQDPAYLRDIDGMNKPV
# experimentDescription: Agonist activity at human wild-type opioid-kappa 1 receptor expressed in CHO-K1 cells assessed as cAMP level by HTRF assay
pEC50: −log10 of the molar value.

In [3]: df
Out[3]:
                                   compound  experimentalvalue
0  CB1C=Cc2c(cccc2OCC(O)CN(C)C)N1 (configuration not stated)             < 5.30

Next:
Query block: Need pEC50, item CB1C=Cc2cccc(OCC(O)CNC(C)C)c2N1 (configuration not stated)
Result block: < 5.30

---

What IC50 was measured for each of the following?
# testedTarget: Muscarinic acetylcholine receptor M2 (Homo sapiens)
# Sequence (P08172 whole entry): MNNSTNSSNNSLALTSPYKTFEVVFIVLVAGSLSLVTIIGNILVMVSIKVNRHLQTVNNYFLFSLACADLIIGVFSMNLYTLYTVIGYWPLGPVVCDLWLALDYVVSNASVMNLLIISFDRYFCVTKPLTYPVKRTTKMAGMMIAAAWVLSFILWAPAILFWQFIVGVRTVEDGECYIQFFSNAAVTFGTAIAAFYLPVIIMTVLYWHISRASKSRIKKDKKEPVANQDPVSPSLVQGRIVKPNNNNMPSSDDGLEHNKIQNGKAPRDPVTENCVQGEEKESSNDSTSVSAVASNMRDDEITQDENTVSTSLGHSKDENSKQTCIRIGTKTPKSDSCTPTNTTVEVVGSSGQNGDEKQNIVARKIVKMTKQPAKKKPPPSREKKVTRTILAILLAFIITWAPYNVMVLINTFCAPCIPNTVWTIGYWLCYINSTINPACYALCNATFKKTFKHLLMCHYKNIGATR
# experimentDescription: Antagonist activity at human wild-type M2 receptor expressed in CHO-K1 cells assessed as acetylcholine-induced cAMP by HTRF assay

                                   compound  assayreadout  experimentalvalue
0  CB1C=Cc2c(cccc2OCC(O)CN(C)C)N1 (configuration not stated)          IC50          > 5.01 µM

Query block: Need IC50, item CB1C=Cc2cccc(OCC(O)CNC(C)C)c2N1 (configuration not stated)
Result block: > 5.01 µM

---

What remaining at 576 h, 10 mg/ml was measured for each of the following?
# experimentDescription: Chemical stability of compound in DMSO assessed as compound remaining at 10 mg/ml after 24 days at room temperature under air
# Assay type: physicochemical
# details: read-out: Stability

Reference set (2 entries):
                                   molecule  experimentalvalue
0  CB1C=Cc2c(cccc2OCC(O)CN(C)C)N1 (stereo not drawn)                97%
1  CB1C=Cc2cccc(OCC(O)CNC(C)C)c2N1 (stereo not drawn)                98%

Next:
Query block: Need remaining at 576 h, 10 mg/ml, item CC(C)NCC(O)COc1cccc2ccccc12 (stereo not drawn) [PROPRANOLOL]
Result block: 100%

---

# testedTarget: Muscarinic acetylcholine receptor M1 (Homo sapiens, UniProt P11229)
# Sequence (P11229 whole entry): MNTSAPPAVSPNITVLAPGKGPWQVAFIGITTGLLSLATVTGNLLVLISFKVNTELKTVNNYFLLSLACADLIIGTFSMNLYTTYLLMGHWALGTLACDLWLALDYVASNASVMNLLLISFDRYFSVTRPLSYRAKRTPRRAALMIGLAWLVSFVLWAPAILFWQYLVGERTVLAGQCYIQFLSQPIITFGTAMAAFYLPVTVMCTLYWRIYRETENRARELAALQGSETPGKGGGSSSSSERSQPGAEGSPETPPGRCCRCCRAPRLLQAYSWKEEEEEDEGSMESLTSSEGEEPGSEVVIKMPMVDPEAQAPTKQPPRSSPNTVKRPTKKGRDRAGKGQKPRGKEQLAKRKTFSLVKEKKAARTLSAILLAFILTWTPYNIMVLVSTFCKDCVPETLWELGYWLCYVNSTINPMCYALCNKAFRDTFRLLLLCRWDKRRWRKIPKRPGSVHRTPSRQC
# experimentDescription: Antagonist activity at human wild-type M1 receptor expressed in CHO-K1 cells assessed as acetylcholine-induced calcium by FDSS assay
pIC50: −log10 of the molar value.
What pIC50 was measured for each of the following?

Give pIC50 for all compounds that follow.
1. CB1C=Cc2c(cccc2OCC(O)CN(C)C)N1 (configuration not stated)
2. CB1C=Cc2cccc(OCC(O)CNC(C)C)c2N1 (configuration not stated)

Result block:
< 5.30
< 5.30

---

# experimentDescription: Intrinsic clearance in rat liver microsomes at 1 uM by HPLC/MS/MS analysis
# Type: ADME
# details: read-out: CLH
What microsomal CLint at 1 µM was measured for each of the following?

In [3]: df
Out[3]:
                                   compound              assayreadout  experimentalvalue
0  CB1C=Cc2cccc(OCC(O)CNC(C)C)c2N1 (configuration not stated)  microsomal CLint at 1 µM      289 µL/min/mg

Query block: Need microsomal CLint at 1 µM, item CB1C=Cc2c(cccc2OCC(O)CN(C)C)N1 (configuration not stated)
Result block: > 346 µL/min/mg

---

# testedTarget: Cytochrome P450 1A2 (Homo sapiens, UniProt P05177)
# Sequence (P05177 whole entry): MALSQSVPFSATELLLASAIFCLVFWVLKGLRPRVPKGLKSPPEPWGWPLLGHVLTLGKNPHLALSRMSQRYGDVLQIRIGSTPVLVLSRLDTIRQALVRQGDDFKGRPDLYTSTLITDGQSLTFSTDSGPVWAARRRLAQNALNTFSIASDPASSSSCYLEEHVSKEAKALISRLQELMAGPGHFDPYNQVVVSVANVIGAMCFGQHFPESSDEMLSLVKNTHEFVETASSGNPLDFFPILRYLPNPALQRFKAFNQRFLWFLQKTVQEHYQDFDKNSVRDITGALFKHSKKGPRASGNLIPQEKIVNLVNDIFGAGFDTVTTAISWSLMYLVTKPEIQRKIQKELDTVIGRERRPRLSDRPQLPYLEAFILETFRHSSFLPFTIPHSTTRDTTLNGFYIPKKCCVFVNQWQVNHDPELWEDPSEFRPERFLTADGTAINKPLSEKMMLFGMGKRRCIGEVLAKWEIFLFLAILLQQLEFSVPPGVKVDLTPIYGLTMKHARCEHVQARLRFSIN
assayReadout: IC50 (µM)
Give bare numbers, in µM.

Query block: Need IC50, item CB1C=Cc2cccc(OCC(O)CNC(C)C)c2N1 (stereo unspecified)
Result block: 3.16

---

# testedTarget: Adenosine receptor A2a (Homo sapiens)
# Sequence (P29274 whole entry): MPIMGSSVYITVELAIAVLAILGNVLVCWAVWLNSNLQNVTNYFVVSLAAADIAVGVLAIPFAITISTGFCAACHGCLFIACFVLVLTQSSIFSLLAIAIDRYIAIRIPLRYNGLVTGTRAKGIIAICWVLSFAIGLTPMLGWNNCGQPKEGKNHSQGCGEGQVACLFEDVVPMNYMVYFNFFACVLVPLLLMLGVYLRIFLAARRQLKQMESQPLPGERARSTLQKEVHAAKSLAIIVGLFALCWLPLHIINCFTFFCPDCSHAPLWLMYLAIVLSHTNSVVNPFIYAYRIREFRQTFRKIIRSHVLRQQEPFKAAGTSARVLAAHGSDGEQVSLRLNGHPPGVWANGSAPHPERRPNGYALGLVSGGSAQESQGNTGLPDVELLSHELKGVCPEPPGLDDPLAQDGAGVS
# experimentDescription: Antagonist activity at human wild-type A2A receptor expressed in CHO-K1 cells assessed as NECA-induced cAMP by HTRF assay
pIC50: −log10 of the molar value.
assayReadout: pIC50

>>> print(df.to_string())
                                   compound  assayreadout  experimentalvalue
0  CB1C=Cc2cccc(OCC(O)CNC(C)C)c2N1 (configuration not stated)         pIC50             < 5.30

Query block: Need pIC50, item CB1C=Cc2c(cccc2OCC(O)CN(C)C)N1 (configuration not stated)
Result block: < 5.30

---

# experimentDescription: Cmax in Swiss mouse brain at 5 mg/kg, sc
# Type: ADME, organism-based
# Design: dose 5 mg/kg, route subcutaneous
assayReadout: Cmax (µM)
Answers are plain numbers, in µM.

>>> print(df.to_string())
                                   compound  experimentalvalue
0  CB1C=Cc2cccc(OCC(O)CNC(C)C)c2N1 (stereo not drawn)                  7
1  CB1C=Cc2c(cccc2OCC(O)CN(C)C)N1 (stereo not drawn)                 62

Next:
Query block: Need Cmax, item CC(C)NCC(O)COc1cccc2ccccc12 (stereo not drawn)
Result block: 16

---

What remaining at 24 h, 10 mg/ml was measured for each of the following?
# experimentDescription: Chemical stability of compound in DMSO assessed as compound remaining at 10 mg/ml after 1 day at room temperature
# Type: physicochemical
# details: read-out: Stability
One number for each entry, in %.

>>> df
                                   compound  unitofmeasure  experimentalvalue
0  CB1C=Cc2cccc(OCC(O)CNC(C)C)c2N1 (stereo not drawn)              %                 96
1  CB1C=Cc2c(cccc2OCC(O)CN(C)C)N1 (stereo not drawn)              %                 97

Query block: Need remaining at 24 h, 10 mg/ml, item CC(C)NCC(O)COc1cccc2ccccc12 (stereo not drawn)
Result block: 100

---

What IC50 was measured for each of the following?
# testedTarget: Type-1 angiotensin II receptor (Homo sapiens)
# Sequence (P30556 whole entry): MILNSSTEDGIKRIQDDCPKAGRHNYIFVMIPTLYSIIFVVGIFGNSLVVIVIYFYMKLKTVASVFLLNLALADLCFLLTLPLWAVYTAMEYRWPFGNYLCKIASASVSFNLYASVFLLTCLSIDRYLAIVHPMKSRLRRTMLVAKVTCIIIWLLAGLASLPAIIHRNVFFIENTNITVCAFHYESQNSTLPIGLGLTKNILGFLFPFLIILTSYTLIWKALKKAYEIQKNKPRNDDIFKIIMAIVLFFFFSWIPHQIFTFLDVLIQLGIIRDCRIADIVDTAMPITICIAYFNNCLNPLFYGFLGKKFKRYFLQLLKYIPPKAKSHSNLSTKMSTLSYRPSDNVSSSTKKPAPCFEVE
# experimentDescription: Antagonist activity at human wild-type AGTR1 receptor expressed in CHO-K1 cells assessed as angiotensin-2-induced calcium by FDSS assay

In [3]: df
Out[3]:
                                   compound  experimentalvalue
0  CB1C=Cc2c(cccc2OCC(O)CN(C)C)N1 (configuration not stated)          > 5.01 µM

Next:
Query block: Need IC50, item CB1C=Cc2cccc(OCC(O)CNC(C)C)c2N1 (configuration not stated)
Result block: > 5.01 µM

---

What IC50 was measured for each of the following?
# testedTarget: UniProtKB P32238
# Sequence (P32238 whole entry): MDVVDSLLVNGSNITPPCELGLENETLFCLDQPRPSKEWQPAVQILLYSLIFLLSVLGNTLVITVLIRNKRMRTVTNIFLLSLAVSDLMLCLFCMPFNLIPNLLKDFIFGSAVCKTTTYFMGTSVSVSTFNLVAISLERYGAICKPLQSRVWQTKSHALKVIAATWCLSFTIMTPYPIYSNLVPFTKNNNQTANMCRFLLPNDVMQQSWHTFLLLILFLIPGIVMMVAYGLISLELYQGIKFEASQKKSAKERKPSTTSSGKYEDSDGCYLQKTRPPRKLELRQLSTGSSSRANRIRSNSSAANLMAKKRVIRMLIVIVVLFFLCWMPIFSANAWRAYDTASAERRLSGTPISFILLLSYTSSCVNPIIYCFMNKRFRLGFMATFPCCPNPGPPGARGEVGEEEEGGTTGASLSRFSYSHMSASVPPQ
# experimentDescription: Antagonist activity at human wild-type CCKA receptor expressed in CHO-K1 cells assessed as CCK8-induced calcium by FDSS assay

>>> print(df.to_string())
                                   compound  assayreadout  experimentalvalue
0  CB1C=Cc2c(cccc2OCC(O)CN(C)C)N1 (configuration not stated)          IC50          > 5.01 µM

Next:
Query block: Need IC50, item CB1C=Cc2cccc(OCC(O)CNC(C)C)c2N1 (configuration not stated)
Result block: > 5.01 µM

---

What pIC50 was measured for each of the following?
# testedTarget: Vasopressin V1a receptor (Homo sapiens, UniProt P37288)
# Sequence (P37288 whole entry): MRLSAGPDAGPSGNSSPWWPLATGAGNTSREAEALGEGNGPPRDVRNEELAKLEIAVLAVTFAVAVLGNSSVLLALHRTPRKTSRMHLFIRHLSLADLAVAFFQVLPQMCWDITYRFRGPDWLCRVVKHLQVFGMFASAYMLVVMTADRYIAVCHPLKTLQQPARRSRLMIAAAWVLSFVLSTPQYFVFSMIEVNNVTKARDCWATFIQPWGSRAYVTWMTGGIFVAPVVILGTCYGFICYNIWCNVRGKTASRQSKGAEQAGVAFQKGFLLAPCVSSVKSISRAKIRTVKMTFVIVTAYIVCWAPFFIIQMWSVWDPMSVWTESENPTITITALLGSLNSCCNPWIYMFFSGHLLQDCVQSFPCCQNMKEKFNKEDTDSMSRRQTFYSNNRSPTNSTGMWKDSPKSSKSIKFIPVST
# experimentDescription: Antagonist activity at human wild-type AVPR1A receptor expressed in CHO-K1 cells assessed as vassopressin-induced calcium by FDSS assay
pIC50: −log10 of the molar value.

>>> print(df.to_string())
                                   molecule  experimentalvalue
0  CB1C=Cc2c(cccc2OCC(O)CN(C)C)N1 (configuration not stated)             < 5.30

Query block: Need pIC50, item CB1C=Cc2cccc(OCC(O)CNC(C)C)c2N1 (configuration not stated)
Result block: < 5.30

---

# testedTarget: Alpha-2C adrenergic receptor (Homo sapiens)
# Sequence (P18825 whole entry): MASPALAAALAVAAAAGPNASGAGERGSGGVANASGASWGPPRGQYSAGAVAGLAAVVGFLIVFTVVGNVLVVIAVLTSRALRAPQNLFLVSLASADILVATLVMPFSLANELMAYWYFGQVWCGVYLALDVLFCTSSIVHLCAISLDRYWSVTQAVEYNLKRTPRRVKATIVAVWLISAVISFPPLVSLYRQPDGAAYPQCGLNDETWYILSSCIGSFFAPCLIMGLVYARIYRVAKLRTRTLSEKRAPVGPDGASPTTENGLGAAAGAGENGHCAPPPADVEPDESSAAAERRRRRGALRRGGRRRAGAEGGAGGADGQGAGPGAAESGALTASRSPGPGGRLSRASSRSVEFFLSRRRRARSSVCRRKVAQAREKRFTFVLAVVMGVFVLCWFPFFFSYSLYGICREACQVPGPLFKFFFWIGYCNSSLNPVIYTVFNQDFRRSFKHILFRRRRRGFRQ
# experimentDescription: Antagonist activity at human wild-type alpha 2C receptor expressed in CHO-K1 cells assessed as epinephrine-induced cAMP by HTRF assay
assayReadout: IC50

>>> df
                                   molecule                              testedtarget  experimentalvalue
0  CB1C=Cc2cccc(OCC(O)CNC(C)C)c2N1 (configuration not stated)  Alpha-2C adrenergic receptor (Homo sapiens)          > 5.01 µM

Next:
Query block: Need IC50, item CB1C=Cc2c(cccc2OCC(O)CN(C)C)N1 (configuration not stated)
Result block: > 5.01 µM
